# Measurement target: T1, human LIV-1 (human, UniProt Q13433 29-755)
# T1 construct: whole, on cells; also called H-LIV1
# T1 sequence (looked up): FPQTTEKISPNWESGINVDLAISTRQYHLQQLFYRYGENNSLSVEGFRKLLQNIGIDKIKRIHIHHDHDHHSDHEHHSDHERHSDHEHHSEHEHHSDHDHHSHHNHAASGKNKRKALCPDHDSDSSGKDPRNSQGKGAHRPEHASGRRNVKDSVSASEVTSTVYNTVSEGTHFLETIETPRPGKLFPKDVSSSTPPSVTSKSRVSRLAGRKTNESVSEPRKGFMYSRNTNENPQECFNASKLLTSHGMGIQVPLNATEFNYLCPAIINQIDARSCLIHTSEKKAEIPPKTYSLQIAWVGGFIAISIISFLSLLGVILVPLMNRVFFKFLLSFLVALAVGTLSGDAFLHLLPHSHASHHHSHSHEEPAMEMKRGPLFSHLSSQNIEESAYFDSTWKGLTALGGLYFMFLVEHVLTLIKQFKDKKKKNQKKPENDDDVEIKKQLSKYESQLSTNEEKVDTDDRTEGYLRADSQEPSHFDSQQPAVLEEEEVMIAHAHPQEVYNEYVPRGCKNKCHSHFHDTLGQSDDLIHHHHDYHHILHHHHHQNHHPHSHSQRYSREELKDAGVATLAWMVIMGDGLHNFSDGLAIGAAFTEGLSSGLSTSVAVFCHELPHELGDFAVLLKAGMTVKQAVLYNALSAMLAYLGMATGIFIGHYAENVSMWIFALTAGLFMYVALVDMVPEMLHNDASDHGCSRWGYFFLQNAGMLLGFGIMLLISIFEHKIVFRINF
# Protocol: FACS, HEK293/H_LIV-1 cells
Measurement name: Top (MFI)
Return type: number; implicit unit MFI.

binder="109C9D4 (antibody, V domains shown, Tested as chimeric antibody) VH: EVKLVESGGGLVQPGGSRKLSCAASGFTFSDYGMAWVRQAPGKGPEWVTFISNLAYSIYYADTVTGRFTISRENAKNTLYLEMSSLRSEDTAMYYCARVEENGNYFDYWGQGTTLTVSS VL: DIQMTQTTSSLSASLGDRVTIRCRASQDIGIYLHWYQQKPDGTVKLLIYYTSRLHSGVPSRFSGSRSGTDYSLTIGNLEQEDIATYFCLQGNTIPPTFGGGTKLEIK" measurement_name="Top (MFI)" unit=MFI numeric_result=7340
binder="47G1B10 (antibody, V domains shown, Tested as chimeric antibody) VH: QVQLKQSGPGLVQPSQSLSITCTVSGFSLTTYGVHWVRQSPGKGLEWLGVIWTGGTTDYNAAFISRLSISKDNSKSQVFFKMNSLQANDTAIYYCARGPSSYWGQGTLVTVSA VL: DIVMTQSQKFMSTSVGDRVSVTCKASQNVDTNVVWYQQKPGQSPKALIHSASYRYSGVPDRFTGSGSGTDFTLTISNVQSEDLAEYFCQQYNNYPWTFGGGTKLEIK" measurement_name="Top (MFI)" unit=MFI numeric_result=60900
binder="136F3D10C10 (antibody, V domains shown, Tested as chimeric antibody) VH: QVQLQQSGPELVKPGASVRIFCKASGYTFTSFHIHWVKQRPGQGLEWIGWIYPGNDNTDHNEKFKGKATLSADKSSSTVYMQLSSLTSEDSAVYFCGRSNYYGPLFAYWGQGTLVTVSA VL: DILMTQTPLSLPVSLGDQASISCRSSQNIVRSNGNTYLEWYLQKPGQSPKVLIYRVSNRFSGVPDRFSGSGSGTDFTLKISRVEAEDLGVYYCFQGSYVPYTFGGGTKLEIK" measurement_name="Top (MFI)" unit=MFI numeric_result=7910
binder="56B3E6 (antibody, V domains shown, Tested as chimeric antibody) VH: EVQLQQSGAELVRSGASVKLSCTASGFNIKDYYIHWVKQRPEQGLEWIGWIDPENDDTEYAPKFQGKATMTADTSSNTAYLHLSSLTSEDTAVYYCPHGGGFRVFDSWGQGTTLTVSS VL: DVLMTQTPLSLPVSLGDQASISCRSSQDIVHSNGNTYLEWYLQKPGQSPKLLIYKVSNRFSGVPDRFSGSGSGTDFTLKISRVEAEDLGVYYCFQGSHVPWTFGGGTKLEIK" measurement_name="Top (MFI)" unit=MFI numeric_result=13300
binder="5D6B10 (antibody, V domains shown, Tested as chimeric antibody) VH: QVQLKQSGPGLVQPSQSLSITCTVSGFSLTTYGIHWVRQSPGKGLEWLGVIWTGGTTDYNAAFISRLSISKDNSKSQVFFKMNSLQANDTAIYYCARGPSSYWGQGTLVTVSA VL: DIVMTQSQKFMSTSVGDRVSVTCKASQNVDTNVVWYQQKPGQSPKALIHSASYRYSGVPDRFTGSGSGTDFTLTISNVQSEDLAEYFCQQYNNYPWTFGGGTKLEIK" measurement_name="Top (MFI)" unit=MFI numeric_result=70100

Exercise: What value of measured Top (MFI) is listed for 108H1D4 (antibody, V domains shown, Tested as chimeric antibody) VH: EVKLVESGGDLVQPGGSRKLSCAASGFTFSDYGMAWFRQAPGKGPEWVAFISNLAYNIYYADTVTGRFTISRENARNTLYLEMSSLRSEDTAMYYCAREGGITTVPATDYFDYWGQGTTLTVSS VL: DIQMTQTTSSLSASLGDRVTFSCRASQDIRNYLNWYQQKPDGTVKLLIYYTSRLHSGVPSRFSGSGSGTDYSLTINNLEQEDLATYFCQQVNALPLTFGAGTKLELK ?
Key: 8800

Exercise: Name the reported Top (MFI) value associated with the binder 290F10G10 (antibody, V domains shown, Tested as chimeric antibody) VH: IQLQQSGAELARPGASVKLSCKASGYTFTSYWIHWVKERPGQGLEWIGTIYPGDGDTRSTQKFKDKATVTAEKSSSTVYMQLSSLASEDSAVYYCTRSLIHDDYDKYYFDYWGQGTTLTVSS VL: DIQMTQSPSSLSASLGGKVTITCKARQDINKYIAWYQHKPGKGPRLLIHYTSILQPGIPSRFSGSGSGRDYSFSISNLEPEDIATYYCLQYDYFFTFGSGTKLEIK
Key: 9570
